Entries and their TGI
- Tested on: NCI-H522 lung
- Test details: NCI tumour cell line growth inhibition, 48 h
Kindly answer with a numeric value in µM, unit omitted.

Use these answered entries as a reference point.
O=c1[nH]c2ccc(C(F)(F)F)cc2nc1C(F)(F)F    47.6
COc1ccc(/C=C2\OC(=O)C(Cl)=C2c2ccc(OC)c(Cl)c2)cc1    79

# ---- query molecule ----
Query :: Fill in the blank: the reported TGI of CC1(C2CCC3(C)C(C2)C3Sc2ccccc2)OCCO1 (stereo unspecified) is ____.
Result :: 40.9

###

- Tested on: HCT-15 colon
- Test details: NCI tumour cell line growth inhibition, 48 h; in the data active = GI50 below about 0.43 µM; inactive = the rest
Permitted responses: active, inactive

CNc1nc(-c2ccc3c(N)n[nH]c3c2)cc(N2C[C@@H](C(=O)NC3CCCCC3)CC[C@H]2C)n1    inactive

Query :: How did this test come out for COC(=O)Nc1nc2ccc(C(=O)c3cccs3)cc2[nH]1 ?
Result :: active

Query :: How did this test come out for Cc1cc2nc(-c3ccc(O)c(O)c3)n(Cc3ccc(O)c(O)c3)c2cc1C ?
Result :: inactive

Query :: How did this test come out for O=C(/C=C/c1ccc(Cl)cc1Cl)c1ccc(Cl)cc1Cl ?
Result :: inactive

Query :: How did this test come out for CN(C)CCOc1ccc2c(c1)C(=O)/C(=C\c1ncc([N+](=O)[O-])n1C)C2 ?
Result :: active

Query :: How did this test come out for CSc1nc2ccc(C)cc2cc1/C=C1/C=C(c2ccccc2)NC1=O ?
Result :: inactive

Query :: How did this test come out for N=C1C=C(N)C(=O)c2ccccc21 ?
Result :: active

Query :: How did this test come out for COc1cc2c(=O)n(CC3CCCCC3)c3c4cc[nH]c4ncc3c2cc1OC ?
Result :: inactive

Query :: How did this test come out for COC(=O)[C@@H](C)C[C@H](Cc1ccccc1)NC(=O)c1csc([C@@H](C[C@H](C(C)C)N(C)C(=O)[C@@H](NC(=O)[C@H]2CCCCN2C)C(C(F)(F)F)C(F)(F)F)OC(C)=O)n1 ?
Result :: active

Query :: How did this test come out for Cc1nc2sc(C(=O)Nc3ccccc3)c(N)c2cc1C(=O)c1ccccc1 ?
Result :: inactive

###

- System: MDA-N
- Test details: NCI tumour cell line growth inhibition, 48 h
Where a SMILES comes first, the peptide text is derived from it. [ ]: non-standard residue; d: D form. The star is where a group is joined. Cbz = O=C(OCc1ccccc1)*; Aib = CC(C)(N)C(=O)O
Endpoint name: TGI

Use these answered entries as a reference point.
CCCC(=O)OC(OC(=O)CCC)c1ccc([N+](=O)[O-])o1    46.3 µM
O=C1/C(=C/c2ccc(O)cc2)Oc2ccccc21    > 100 µM
ClC1=C(Cl)C2OC3C=CCC3OC2C(Cl)=C1Cl (stereo unspecified)    > 100 µM
O=C(CN1CCN(c2ccccn2)CC1)N1CCCn2c1nc1ccccc1c2=O    > 100 µM
N#Cc1c(N2CCCC2)nsc1Nc1ccccc1    > 100 µM
CCOC(=O)Cc1cc(=O)[nH]c(-n2[nH]c(C)c(CCO)c2=O)n1    > 100 µM
CC(C)OP(=O)(OC(C)C)/C(C#N)=C/c1c[nH]c2ccccc12    > 100 µM
COc1cccc(N(CN2C(=O)CCC2OC)C(C)=O)c1 (stereo unspecified)    > 100 µM
O=[N+]([O-])c1ccc2nc(-c3ccc(Cl)cc3)[nH]c2c1    51.1 µM
CC(C)=C=CP(=O)(O)c1ccccc1    > 100 µM

# ---- query compound ----
Query :: Fill in the blank: the reported TGI of CC(C)(NC(=O)C(C)(C)NC(=O)OCc1ccccc1)C(=O)O (Cbz-[Aib]-[Aib]-OH) is ____.
Result :: > 100 µM
